Hi there, I'd appreciate the recorded IC50 for every entry that follows.
# tested.target: truncated human beta-secretase, BACE1 (amino acids 1-454) (Homo sapiens (Human))
# Sequence (P56817 22-454): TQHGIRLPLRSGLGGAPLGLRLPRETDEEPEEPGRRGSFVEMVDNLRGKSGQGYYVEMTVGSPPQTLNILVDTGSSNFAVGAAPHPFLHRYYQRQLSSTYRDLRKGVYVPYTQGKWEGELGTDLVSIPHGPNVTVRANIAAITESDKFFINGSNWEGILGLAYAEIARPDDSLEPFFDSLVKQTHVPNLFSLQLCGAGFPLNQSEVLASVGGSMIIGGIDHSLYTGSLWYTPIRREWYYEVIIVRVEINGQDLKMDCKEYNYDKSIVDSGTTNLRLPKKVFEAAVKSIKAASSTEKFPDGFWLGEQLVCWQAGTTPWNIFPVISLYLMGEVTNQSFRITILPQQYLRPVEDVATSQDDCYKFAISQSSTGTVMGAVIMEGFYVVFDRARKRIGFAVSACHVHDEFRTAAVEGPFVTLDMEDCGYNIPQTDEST
# assay.comment: BACE1 Assay (Assay 1), fluorescence quench assay
# Format: biochemical
# test.context: pH 4.4
Please state the value followed by its unit.

Here are 6 compounds together with their reported answers.
compound	tested.target	IC50
CO[C@H]1CC[C@]2(CC1)Cc1ccc(OCC3CC3)cc1C21N=C(N)N(CCC(F)(F)F)C1=O (stereo partly shown) [reference compound]	truncated human beta-secretase, BACE1 (amino acids 1-454) (Homo sapiens (Human))	8.3 nM
CO[C@H]1CC[C@]2(CC1)Cc1ccc(CCC(C)C)cc1C21N=C(N)N(CC(F)(F)F)C1=O (stereo partly shown) [reference compound]	truncated human beta-secretase, BACE1 (amino acids 1-454) (Homo sapiens (Human))	3.5 nM
C[C@H]1C[C@@]2(CC[C@@H]1O)Cc1ccc(C#N)cc1[C@]21N=C(N)N(CC2CC(F)(F)C2)C1=O	truncated human beta-secretase, BACE1 (amino acids 1-454) (Homo sapiens (Human))	8.7 nM
C[C@H]1C[C@@]2(CC[C@@H]1O)Cc1ccc(-c3cccnc3)cc1[C@]21N=C(N)N(Cc2ncccn2)C1=O	truncated human beta-secretase, BACE1 (amino acids 1-454) (Homo sapiens (Human))	6.8 nM
C[C@@H]1C[C@@]2(Cc3ccc(C#N)cc3[C@]23N=C(N)N(CC2CC2)C3=O)C[C@H](C)[C@H]1O	truncated human beta-secretase, BACE1 (amino acids 1-454) (Homo sapiens (Human))	10.6 nM
C[C@@H]1C[C@@]2(Cc3ccc(C#N)cc3[C@]23N=C(N)N(CC2CC(F)(F)C2)C3=O)C[C@H](C)[C@H]1O.O=C(O)C(F)(F)F	truncated human beta-secretase, BACE1 (amino acids 1-454) (Homo sapiens (Human))	4.5 nM

Next compound, please.
Which IC50 is listed for C[C@@H]1C[C@@]2(Cc3ccc(NC(=O)C(C)(C)F)cc3[C@]23N=C(N)N(CC(C)(C)F)C3=O)C[C@H](C)[C@H]1O ?
6.3 nM

###

# assay.comment: In Vitro Phospholipidosis Assay (Assay 3), Nile red staining
# Type: cell-based, human
# test.context: human, first effect concentration, U937 cells, read-out: Phospholipidosis FEC IC50 μM (assay 3)
So I've got a bunch of molecules here, and I need their IC50 at 48 h values.
Answers without a unit are incomplete; give the number and then its unit.

Some solved entries appear below for comparison.
molecule	IC50 at 48 h
Cc1cc(CN2C(=O)[C@]3(N=C2N)c2cc(C#N)ccc2C[C@@]32C[C@@H](C)[C@H](O)[C@@H](C)C2)ccn1.O=C(O)C(F)(F)F [Example 16]	200 µM
COC1CCC2(CC1)Cc1ccc(Cl)cc1[C@]21N=C(N)N(C)C1=O (stereo partly drawn) [reference compound]	100 µM
C[C@@H]1C[C@@]2(Cc3ccc(C#N)cc3[C@]23N=C(N)N(CCc2ccncc2)C3=O)C[C@H](C)[C@H]1O.O=C(O)C(F)(F)F [Example 15]	800 µM

Batch request: IC50 at 48 h for each of the following molecules.
1. CC[C@@H]1C[C@@]2(Cc3ccc(C#N)cc3[C@]23N=C(N)N(CC(C)(C)F)C3=O)C[C@H](C)[C@H]1O [Example 7]
2. C[C@@H]1C[C@@]2(Cc3ccc(C#N)cc3[C@]23N=C(N)N(CC(C)(C)Cl)C3=O)C[C@H](C)[C@H]1O [Example 3]

["400 µM", "200 µM"]

Recorded IC50 at 48 h for C[C@@H]1C[C@@]2(Cc3ccc(C#N)cc3[C@]23N=C(N)N(CC2CC(F)(F)C2)C3=O)C[C@H](C)[C@H]1O.O=C(O)C(F)(F)F [Example 14] , please?
200 µM
